system: 422866-222-R5-J1-PDC complex spheroid viability; test: Anticancer human tumor 422866-222-R5-J1-PDC patient-derived pancreatic adenocarcinoma cell line growth inhibition [POLQ]; conditions: second compound 0.1 µM; first compound 0.0316 µM; stronger effect = lower value
# met = viability, T/C below 90% (exclusive); not met = viability, T/C at/above 90%

[
  {
    "molecule": "CCc1cc2c(N3CCc4c(cc(Cn5ccnc5)cc4-c4cn(C)nc4C(F)(F)F)C3=O)ccnc2c(OC)n1 + COC1C(OC(N)=O)C(O)C(Oc2ccc3c(O)c(NC(=O)c4ccc(O)c(CC=C(C)C)c4)c(=O)oc3c2C)OC1(C)C",
    "class": "not met"
  },
  {
    "molecule": "CC[C@@]1(O)C(=O)OCc2c1cc1n(c2=O)Cc2cc3c(CN(C)C)c(O)ccc3nc2-1 + Nc1ccc(C#CCN(C(=O)Cc2ncc(C(F)(F)F)cc2C(F)(F)F)c2ccc(F)cc2)nn1",
    "class": "met"
  },
  {
    "molecule": "COc1ccc([C@@H](O)c2cc(-c3ncnc4cc(N5CCOCC5)ccc34)c(F)cc2Cl)nn1 + COC1C(OC(N)=O)C(O)C(Oc2ccc3c(O)c(NC(=O)c4ccc(O)c(CC=C(C)C)c4)c(=O)oc3c2C)OC1(C)C",
    "class": "not met"
  },
  {
    "molecule": "C=CCn1c(=O)c2cnc(Nc3ccc(N4CCN(C)CC4)cc3)nc2n1-c1cccc(C(C)(C)O)n1 + COC1C(OC(N)=O)C(O)C(Oc2ccc3c(O)c(NC(=O)c4ccc(O)c(CC=C(C)C)c4)c(=O)oc3c2C)OC1(C)C",
    "class": "met"
  },
  {
    "molecule": "COc1cc(C2c3cc4c(cc3C(OC3OC5COC(C)OC5C(O)C3O)C3COC(=O)C23)OCO4)cc(OC)c1O (stereo not given) + COC1C(OC(N)=O)C(O)C(Oc2ccc3c(O)c(NC(=O)c4ccc(O)c(CC=C(C)C)c4)c(=O)oc3c2C)OC1(C)C",
    "class": "not met"
  },
  {
    "molecule": "Nc1ccn(C2OC(CO)C(O)C2(F)F)c(=O)n1 (stereo not given) + Nc1ccc(C#CCN(C(=O)Cc2ncc(C(F)(F)F)cc2C(F)(F)F)c2ccc(F)cc2)nn1",
    "class": "met"
  },
  {
    "molecule": "COc1cccc2c1C(=O)c1c(O)c3c(c(O)c1C2=O)CC(O)(C(=O)CO)CC3OC1CC(N)C(O)C(C)O1 (stereo not given) + Nc1ccc(C#CCN(C(=O)Cc2ncc(C(F)(F)F)cc2C(F)(F)F)c2ccc(F)cc2)nn1",
    "class": "met"
  },
  {
    "molecule": "Nc1ccn(C2OC(CO)C(O)C2(F)F)c(=O)n1 (stereo not given) + Cc1cccc(N(C)C(=O)C2C(O)CCN2c2nc(C)cc(C(F)(F)F)c2C#N)c1",
    "class": "met"
  }
]

###

tested on: 422866-222-R5-J1-PDC complex spheroid viability; assay: Anticancer human tumor 422866-222-R5-J1-PDC cell line growth inhibition [POLQ]; conditions: second compound 10 µM; first compound 0.1 µM; stronger effect = lower value;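 note: spheroids exposed to compounds for one week before readout; percent of DMSO vehicle wells luminescence so 100% = untreated viability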
Reported values of viability, T/C for individual entries

[
  {
    "compound": "CC[C@@]1(O)C(=O)OCc2c1cc1n(c2=O)Cc2cc3c(CN(C)C)c(O)ccc3nc2-1 + COC1C(OC(N)=O)C(O)C(Oc2ccc3c(O)c(NC(=O)c4ccc(O)c(CC=C(C)C)c4)c(=O)oc3c2C)OC1(C)C",
    "experimental target": "422866-222-R5-J1-PDC complex spheroid viability",
    "viability, T/C (%)": 30.8
  },
  {
    "compound": "COc1cc(C2c3cc4c(cc3C(OC3OC5COC(C)OC5C(O)C3O)C3COC(=O)C23)OCO4)cc(OC)c1O (stereo unspecified) + Nc1ccc(C#CCN(C(=O)Cc2ncc(C(F)(F)F)cc2C(F)(F)F)c2ccc(F)cc2)nn1",
    "experimental target": "422866-222-R5-J1-PDC complex spheroid viability",
    "viability, T/C (%)": 88.9
  },
  {
    "compound": "CC1COCCN1c1cc(C2(S(C)(=N)=O)CC2)nc(-c2ccnc3[nH]ccc23)n1 (stereo unspecified) + Cc1cccc(N(C)C(=O)C2C(O)CCN2c2nc(C)cc(C(F)(F)F)c2C#N)c1",
    "experimental target": "422866-222-R5-J1-PDC complex spheroid viability",
    "viability, T/C (%)": 82
  },
  {
    "compound": "Cn1ncnc1[C@H]1c2n[nH]c(=O)c3cc(F)cc(c23)N[C@@H]1c1ccc(F)cc1 + COC1C(OC(N)=O)C(O)C(Oc2ccc3c(O)c(NC(=O)c4ccc(O)c(CC=C(C)C)c4)c(=O)oc3c2C)OC1(C)C",
    "experimental target": "422866-222-R5-J1-PDC complex spheroid viability",
    "viability, T/C (%)": 87.7
  },
  {
    "compound": "COc1cccc(OCCCN)c1-c1cc(Nc2cnc(C#N)cn2)n[nH]1 + Nc1ccc(C#CCN(C(=O)Cc2ncc(C(F)(F)F)cc2C(F)(F)F)c2ccc(F)cc2)nn1",
    "experimental target": "422866-222-R5-J1-PDC complex spheroid viability",
    "viability, T/C (%)": 36.5
  },
  {
    "compound": "CC1COCCN1c1cc(C2(S(C)(=N)=O)CC2)nc(-c2ccnc3[nH]ccc23)n1 (stereo unspecified) + COC1C(OC(N)=O)C(O)C(Oc2ccc3c(O)c(NC(=O)c4ccc(O)c(CC=C(C)C)c4)c(=O)oc3c2C)OC1(C)C",
    "experimental target": "422866-222-R5-J1-PDC complex spheroid viability",
    "viability, T/C (%)": 99.5
  }
]
